# measurement_protocol: Plasma stability profiling method 1 (35% plasma, MALDI-TOF, qualitative)
# Assay type: in vitro ADME, rat
# test_context: 35% rat plasma, 37 deg C, method 1, comparative estimate
Numbered stars: 1 amine (or outer) side, 2 acyl side, 3 side chain; on linkers, the order of the positions; unused ones are H or OH. Bridge positions count the residues as written; N and C are the ends. Square brackets hold non-standard residues; d marks the D form. Peptide text beside a SMILES is read from it. 2Nal = N[C@@H](Cc1ccc2ccccc2c1)C(=O)O; TBMB = c1c(C[*:1])cc(C[*:3])cc1C[*:2]; Pip = O=C(O)[C@@H]1CCCCN1; Dpg = CCCC(N)(CCC)C(=O)O
// reported Observable in rat plasma, for days for each item listed
measured_endpoint: Observable in rat plasma, for days

{"columns": ["compound", "measured_endpoint", "measured"],
 "data": [
  ["CC(=O)N[C@H]1CSCc2cc3cc(c2)CSC[C@H](NC(=O)[C@H](CCCNC(=N)N)NC(=O)[C@H](C)NC(=O)[C@@H]2CCCN2C(=O)[C@H](Cc2ccc4ccccc4c2)NC(=O)[C@H](CO)NC1=O)C(=O)N[C@@H](CC(C)C)C(=O)N[C@@H](Cc1c[nH]cn1)C(=O)N[C@@H](CCC(N)=O)C(=O)N[C@@H](CC(=O)O)C(=O)N[C@@H](CC(C)C)C(=O)N[C@H](C(N)=O)CSC3 [Ac-(06-34-18) 2NAL2] (Ac-CS[2Nal]PARCLHQDLC-NH2; linker 1-7-13 via TBMB)", "Observable in rat plasma, for days", "2 days"],
  ["CC(=O)N[C@H]1CSCc2cc3cc(c2)CSC[C@H](NC(=O)[C@H](CCCNC(=N)N)NC(=O)[C@H](C)NC(=O)[C@@H]2CCCCN2C(=O)[C@H](Cc2c[nH]c4ccccc24)NC(=O)[C@H](CO)NC1=O)C(=O)N[C@@H](CC(C)C)C(=O)N[C@@H](Cc1c[nH]cn1)C(=O)N[C@@H](CCC(N)=O)C(=O)N[C@@H](CC(=O)O)C(=O)N[C@@H](CC(C)C)C(=O)N[C@H](C(N)=O)CSC3 [Ac-(06-34-18) Pip3] (Ac-CSW[Pip]ARCLHQDLC-NH2; linker 1-7-13 via TBMB)", "Observable in rat plasma, for days", "2 days"],
  ["CCCC1(CCC)NC(=O)[C@@H](NC(C)=O)CSCc2cc3cc(c2)CSC[C@H](NC(=O)[C@H](CCCNC(=N)N)NC(=O)[C@H](C)NC(=O)[C@@H]2CCCN2C(=O)[C@H](Cc2c[nH]c4ccccc24)NC1=O)C(=O)N[C@@H](CC(C)C)C(=O)N[C@@H](Cc1c[nH]cn1)C(=O)N[C@@H](CCC(N)=O)C(=O)N[C@@H](CC(=O)O)C(=O)N[C@@H](CC(C)C)C(=O)N[C@H](C(N)=O)CSC3 [Ac-(06-34-18) Dpg1] (Ac-C[Dpg]WPARCLHQDLC-NH2; linker 1-7-13 via TBMB)", "Observable in rat plasma, for days", "2 days"]
]}
